Provenance of the data: the supplement of paper PMC5998384

- Tested on: HeLa Kyoto
- ASSAY_OVERVIEW: thermal stability score vs G1/S (z-score of summed log2 fold changes over temperatures); higher = more thermally stable than in G1/S
- PARTICULARS: cell cycle stage: mitosis

[
  {
    "SEQUENCE_CHAIN": "MCGRTSCHLPRDVLTRACAYQDRRGQQRLPEWRDPDKYCPSYNKSPQSNSPVLLSRLHFEKDADSSERIIAPMRWGLVPSWFKESDPSKLQFNTTNCRSDTVMEKRSFKVPLGKGRRCVVLADGFYEWQRCQGTNQRQPYFIYFPQIKTEKSGSIGAADSPENWEKVWDNWRLLTMAGIFDCWEPPEGGDVLYSYTIITVDSCKGLSDIHHRMPAILDGEEAVSKWLDFGEVSTQEALKLIHPTENITFHAVSSVVNNSRNNTPECLAPVDLVVKKELRASGSSQRMLQWLATKSPKKEDSKTPQKEESDVPQWSSQFLQKSPLPTKRGTAGLLEQWLKREKEEEPVAKRPYSQ [HMCES]",
    "TARGET_UNDER_TEST": "HeLa Kyoto",
    "thermal stability score": 1.51
  },
  {
    "SEQUENCE_CHAIN": "MAAIRMGKLTTMPAGLIYASVSVHAAKQEESKKQLVKPEQLPIYTAPPLQSKYVEEQPGHLQMGFASIRTATGCYIGWCKGVYVFVKNGIMDTVQFGKDAYVYLKNPPRDFLPKMGVITVSGLAGLVSARKGSKFKKITYPLGLATLGATVCYPVQSVIIAKVTAKKVYATSQQIFGAVKSLWTKSSKEESLPKPKEKTKLGSSSEIEVPAKTTHVLKHSVPLPTELSSEAKTKSESTSGATQFMPDPKLMDHGQSHPEDIDMYSTRS [APOOL]",
    "TARGET_UNDER_TEST": "HeLa Kyoto",
    "thermal stability score": -2.35
  },
  {
    "SEQUENCE_CHAIN": "MPVAGSELPRRPLPPAAQERDAEPRPPHGELQYLGQIQHILRCGVRKDDRTGTGTLSVFGMQARYSLRDEFPLLTTKRVFWKGVLEELLWFIKGSTNAKELSSKGVKIWDANGSRDFLDSLGFSTREEGDLGPVYGFQWRHFGAEYRDMESDYSGQGVDQLQRVIDTIKTNPDDRRIIMCAWNPRDLPLMALPPCHALCQFYVVNSELSCQLYQRSGDMGLGVPFNIASYALLTYMIAHITGLKPGDFIHTLGDAHIYLNHIEPLKIQLQREPRPFPKLRILRKVEKIDDFKAEDFQIEGYNPHPTIKMEMAV [TYMS]",
    "TARGET_UNDER_TEST": "HeLa Kyoto",
    "thermal stability score": 1.58
  }
]

---

This listing pairs sequences with measured solubility change mitosis (log2).
- Tested on: HeLa Kyoto
- ASSAY_OVERVIEW: solubility change mitosis vs G1/S (difference of NP-40 vs SDS log2 ratios) (log2 ratio difference); higher = more soluble in mitosis
MEASUREMENT_KIND: solubility change mitosis (log2)

[
  {
    "SEQUENCE_CHAIN": "MGNSALRAHVETAQKTGVFQLKDRGLTEFPADLQKLTSNLRTIDLSNNKIESLPPLLIGKFTLLKSLSLNNNKLTVLPDEICNLKKLETLSLNNNHLRELPSTFGQLSALKTLSLSGNQLGALPPQLCSLRHLDVMDLSKNQIRSIPDSVGELQVIELNLNQNQISQISVKISCCPRLKILRLEENCLELSMLPQSILSDSQICLLAVEGNLFEIKKLRELEGYDKYMERFTATKKKFA [LRRC57]",
    "MEASUREMENT_KIND": "solubility change mitosis (log2)",
    "NUMERIC_RESULT": 0.00239
  },
  {
    "SEQUENCE_CHAIN": "MATASPAADGGRGRPWEGGLVSWPPAPPLTLPWTWMGPSWGQHPGHWGFPALTEPSASPAAGLGIFEVRRVLDASGCSMLAPLQTGAARFSSYLLSRARKVLGSHLFSPCGVPEFCSISTRKLAAHGFGASMAAMVSFPPQRYHYFLVLDFEATCDKPQIHPQEIIEFPILKLNGRTMEIESTFHMYVQPVVHPQLTPFCTELTGIIQAMVDGQPSLQQVLERVDEWMAKEGLLDPNVKSIFVTCGDWDLKVMLPGQCQYLGLPVADYFKQWINLKKAYSFAMGCWPKNGLLDMNKGLSLQHIGRPHSGIDDCKNIANIMKTLAYRGFIFKQTSKPF [ERI3]",
    "MEASUREMENT_KIND": "solubility change mitosis (log2)",
    "NUMERIC_RESULT": -0.0837
  },
  {
    "SEQUENCE_CHAIN": "MPGVKLTTQAYCKMVLHGAKYPHCAVNGLLVAEKQKPRKEHLPLGGPGAHHTLFVDCIPLFHGTLALAPMLEVALTLIDSWCKDHSYVIAGYYQANERVKDASPNQVAEKVASRIAEGFSDTALIMVDNTKFTMDCVAPTIHVYEHHENRWRCRDPHHDYCEDWPEAQRISASLLDSRSYETLVDFDNHLDDIRNDWTNPEINKAVLHLC [EMC8]",
    "MEASUREMENT_KIND": "solubility change mitosis (log2)",
    "NUMERIC_RESULT": -0.272
  }
]
